Hey, just so you know, these numbers are from paper PMC10224329.

system: human renal carcinoma (iSLK) cell lines; experiment: MTS cell viability assay; type: cell-based; conditions: Homo sapiens; conjugates at 25 μM, 72 h; read-out: Inhibition of Cancer Cell Lines iSLK
experimentalReadout: inhibition at 25 µM
Write the figure, then the unit, nothing else.

Problem: Requested field: inhibition at 25 µM. Item: COc1cccc2occ(COC(=O)c3c(C)noc3C)c(=O)c12
Solution: 23%

Problem: Which inhibition at 25 µM is listed for COc1ccc2c(=O)c(COC(=O)c3c(C)noc3C)coc2c1 ?
Solution: 42%

Problem: Query (compound): Cc1noc(C)c1C(=O)OCc1coc2ccccc2c1=O ; field requested: inhibition at 25 µM
Solution: 44%

Problem: Reported inhibition at 25 µM for COc1ccc2occ(COC(=O)c3c(C)noc3C)c(=O)c2c1 : what is it?
Solution: 31%
